Reference source: the supplement of paper PMC12669032

Test system: Escherichia coli ED1a
Test: growth AUC relative to DMSO control (median of replicates) (fraction); higher = more growth (less inhibition), active = hit call of the paper
Settings: 20 µM; 24 h
Outcome label depends on growth AUC relative to 1: at/above gives rule met, below gives rule not met.

# count of solved cases: 3
- compound: "CCCNCCOc1c(Cl)cc(Cl)cc1Cl"
  measured.on: "Escherichia coli ED1a"
  assigned.category: "rule not met"
- compound: "O.O=C(Nc1ccc(Cl)c(Cl)c1)Nc1cc(Cl)ccc1Oc1ccc(Cl)cc1S(=O)(=O)[O-].[Na+]"
  measured.on: "Escherichia coli ED1a"
  assigned.category: "rule met"
- compound: "C#CC(C)N(C)C(=O)Nc1ccc(Cl)cc1 (stereo not given)"
  measured.on: "Escherichia coli ED1a"
  assigned.category: "rule met"

Moving on to the next compound.
Task: Is reported growth AUC greater than or equal to 1 here: CCc1cccc(C)c1NC(=O)CS(=O)(=O)[O-].[Na+]
Output: rule not met
